Molecular target: SARS-CoV-2 Spike as carried on rVSV-SARS-CoV-2 pseudovirus and authentic WT virus (SARS-CoV-2, UniProt P0DTC2 14-1273)
Assay: cell-based or functional assay
// reported Neutralization (ng/mL), Authentic Virus IC50 for each item listed
resultType: Neutralization (ng/mL), Authentic Virus IC50

>>> reportedmeasurement("AB-2 full-length IgG1 (antibody, V domains shown) VH: EVQLEESGTVLARPGASVKMSCKASGYTFTTYWMHWIKQRPGQGLEWIGAIYPGNGDTNYNQKFKDKAKLTAVKSTSSAYMELSSLTNEDSAVYFCTREGIPQLLRTLDYWGQGTSVTVSS VL: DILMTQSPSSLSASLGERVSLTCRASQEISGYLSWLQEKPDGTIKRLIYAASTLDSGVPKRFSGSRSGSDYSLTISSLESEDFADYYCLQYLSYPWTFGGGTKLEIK")
379
>>> reportedmeasurement("AB-9 full-length IgG1 (antibody, V domains shown) VH: EVQLEESGTVLARPGASVKMSCKASGYTFTSYWMHWIKQRPGQGLEWIGAIYPGNSDTNYNQKFKDKAKLTAVTSTSSAYMELSSLTNEDSAVYFCTREGIPQLLRTLDYWGQGTSVTVSS VL: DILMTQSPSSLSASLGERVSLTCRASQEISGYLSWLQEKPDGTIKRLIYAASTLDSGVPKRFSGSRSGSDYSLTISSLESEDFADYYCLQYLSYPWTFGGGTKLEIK")
100
>>> reportedmeasurement("AB-3 full-length IgG1 (antibody, V domains shown) VH: EVQLEESGTVLARPGASVKMSCKASGYTFTTYWMHWIKQRPGQGLEWIGAIYPGNGDTNYNQKFKDKAKLTAVKSTSSAYMELSSLTNEDSAVYFCTREGIPQKLRTLDVWGQGTSVTVSS VL: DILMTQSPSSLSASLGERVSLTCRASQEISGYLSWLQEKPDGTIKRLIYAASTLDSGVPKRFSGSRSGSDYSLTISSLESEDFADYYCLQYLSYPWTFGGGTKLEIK")
3550
>>> reportedmeasurement("AB-6 full-length IgG1 (antibody, V domains shown) VH: EVQLEESGTVLARPGASVKMSCKASGYTFTSYWMHWIKQRPGQGLEWIGAIYPGNSDTNYNQKFKDKAKLTAVKSTSSAYMELSSLTNEDSAVYFCTREGIPQLTRTLDYWGQGTSVTVSS VL: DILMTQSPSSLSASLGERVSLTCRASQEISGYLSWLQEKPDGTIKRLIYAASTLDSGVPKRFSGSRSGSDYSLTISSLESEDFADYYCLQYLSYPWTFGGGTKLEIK")
25000
>>> reportedmeasurement("AB-5 full-length IgG1 (antibody, V domains shown) VH: EVQLEESGTVLARPGASVKMSCKASGYTFTSYWMHWIKQRPGQGLEWIGAIYPGNGDTNYNQKFKDKAKLTAVKSTSSAYMELSSLTNEDSAVYFCTREGIPQLLNTLDVWGQGTSVTVSS VL: DILMTQSPSSLSASLGERVSLTCRASQEISGYLSWLQEKPDGTIKRLIYAASTLDSGVPKRFSGSRSGSDYSLTISSLESEDFADYYCQQYLSYPWTFGGGTKLEIK")
260
>>> reportedmeasurement("AB-1 full-length IgG1 (antibody, V domains shown) VH: EVQLEESGTVLARPGASVKMSCKASGYTFTTYWMHWIKQRPGQGLEWIGAIYPGNSDTQYNQKFKDKAKLTAVKSTSSAYMELSSLTNEDSAVYFCTREGIPQLLRTLDYWGQGTSVTVSS VL: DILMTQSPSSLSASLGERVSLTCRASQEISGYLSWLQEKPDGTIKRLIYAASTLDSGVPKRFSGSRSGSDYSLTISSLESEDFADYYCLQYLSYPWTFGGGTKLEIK")
78
>>> reportedmeasurement("AB-8 full-length IgG1 (antibody, V domains shown) VH: EVQLEESGTVLARPGASVKMSCKASGYTFTTYWMHWIKQRPGQGLEWIGAIYPGNSDTIYNQKFKDKAKLTAVKSTSSAYMELSSLTNEDSAVYFCTREGIPQLLRTLDYWGQGTSVTVSS VL: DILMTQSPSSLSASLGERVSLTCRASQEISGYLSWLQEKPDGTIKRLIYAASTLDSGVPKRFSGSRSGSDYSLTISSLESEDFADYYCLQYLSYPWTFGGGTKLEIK")
222
